Attribution: patent US11225505B2

Items are presented alongside their recorded Minimum inhibitory concentration.
- Test system: Enterobacter cloacae FADDI-EC006
- Type: cell-based
- assaySetup: E. cloacae FADDI-EC006; CAMHB broth microdilution
Where a SMILES comes first, the peptide text is derived from it. Bridges are numbered along the chain shown (N, C = ends). [ ]: non-standard residue; d: D form. The star is where a group is joined. X66 = O=C(c1c[nH]c(-c2ccccc2)n1)*; X48 = O=C(c1ccc(Cl)nc1)*; Dab = NCC[C@H](N)C(=O)O; Abu = CC[C@H](N)C(=O)O; Dap = NC[C@H](N)C(=O)O
Use µg/mL as the unit, but write only the number.

CC[C@@H]1NC(=O)[C@@H](CC(C)C)NC(=O)[C@H](CCN)NC(=O)[C@@H](NC(=O)[C@H](CN)NC(=O)[C@@H](NC(=O)[C@H](CCN)NC(=O)c2c[nH]c(-c3ccccc3)n2)[C@@H](C)O)CCNC(=O)[C@H]([C@@H](C)O)NC(=O)[C@H](CCN)NC(=O)[C@H](CCN)NC1=O [Compound 82] (X66-[Dab]T[Dap][Dab][Dab][dL][Abu][Dab][Dab]T; lactam 4-C): 0.5

Prompt: For Enterobacter cloacae FADDI-EC006, give the measured Minimum inhibitory concentration of the entry CC[C@@H]1NC(=O)[C@@H](CC(C)C)NC(=O)[C@H](CCN)NC(=O)[C@@H](NC(=O)[C@H](CN)NC(=O)[C@@H](NC(=O)[C@H](CCN)NC(=O)c2ccc(Cl)nc2)[C@@H](C)O)CCNC(=O)[C@H]([C@@H](C)O)NC(=O)[C@H](CCN)NC(=O)[C@H](CCN)NC1=O [Compound 4] (X48-[Dab]T[Dap][Dab][Dab][dL][Abu][Dab][Dab]T; lactam 4-C)
Completion: 4
